Values were extracted from paper PMC4336329.

hERG current change (%, negative = inhibition) at 10uM values by entry
Target: human ether-à-go-go-related gene (hERG) potassium channel (human, UniProt Q12809);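 note: peak tail current of the secondary pulse compared with the same well before compound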
Sequence (Q12809 whole entry, looked up): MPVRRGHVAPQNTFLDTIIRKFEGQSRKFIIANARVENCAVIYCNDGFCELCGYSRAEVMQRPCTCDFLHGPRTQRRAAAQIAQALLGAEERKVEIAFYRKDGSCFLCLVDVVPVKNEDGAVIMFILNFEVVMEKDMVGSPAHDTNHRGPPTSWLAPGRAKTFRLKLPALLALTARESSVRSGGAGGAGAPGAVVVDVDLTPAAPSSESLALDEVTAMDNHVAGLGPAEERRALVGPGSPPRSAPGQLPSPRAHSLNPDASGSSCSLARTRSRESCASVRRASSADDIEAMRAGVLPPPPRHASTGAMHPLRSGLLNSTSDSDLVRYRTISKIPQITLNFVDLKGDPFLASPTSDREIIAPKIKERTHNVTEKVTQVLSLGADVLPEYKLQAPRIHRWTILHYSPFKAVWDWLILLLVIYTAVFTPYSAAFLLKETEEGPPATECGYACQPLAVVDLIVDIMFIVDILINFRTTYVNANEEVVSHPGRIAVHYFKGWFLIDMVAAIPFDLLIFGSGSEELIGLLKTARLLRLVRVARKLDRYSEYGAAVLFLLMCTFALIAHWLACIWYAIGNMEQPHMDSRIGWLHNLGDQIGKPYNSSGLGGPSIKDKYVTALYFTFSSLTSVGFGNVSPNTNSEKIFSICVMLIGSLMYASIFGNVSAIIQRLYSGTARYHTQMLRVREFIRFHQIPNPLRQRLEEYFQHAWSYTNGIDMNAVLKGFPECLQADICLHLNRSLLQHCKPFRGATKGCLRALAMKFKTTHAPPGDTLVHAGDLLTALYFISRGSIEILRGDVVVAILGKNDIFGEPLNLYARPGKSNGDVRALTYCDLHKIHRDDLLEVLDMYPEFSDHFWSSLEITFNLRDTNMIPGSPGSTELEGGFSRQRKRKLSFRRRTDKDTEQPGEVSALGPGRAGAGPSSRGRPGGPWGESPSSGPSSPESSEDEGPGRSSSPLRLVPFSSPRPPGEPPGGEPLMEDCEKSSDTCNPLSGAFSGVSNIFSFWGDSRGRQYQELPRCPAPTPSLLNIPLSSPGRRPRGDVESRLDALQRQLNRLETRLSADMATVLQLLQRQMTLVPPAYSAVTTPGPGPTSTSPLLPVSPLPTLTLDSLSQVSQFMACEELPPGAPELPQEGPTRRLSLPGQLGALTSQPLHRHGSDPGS
Assay: primary screen, population patch clamp on CHO cells stably expressing hERG; higher = less effect of the substance
Screen size: about 310,000 compounds; about 14,000 (4.5%) showed an effect of 50% or more. The effect is printed as a negative number. The full list was thinned out, with strong results kept by preference.
recordedMetric: hERG current change (%, negative = inhibition) at 10uM (%)

[[record]]
compound = "CCN1CCN(CCCN(Cc2cccs2)C(=S)Nc2ccccc2C)CC1"
unitannotation = "%"
valueobserved = -54.4

[[record]]
compound = "Cn1c(C(=O)N[C@@H](Cc2ccccc2)C(=O)NCCC(=O)O)cc2cc(Cl)ccc21"
unitannotation = "%"
valueobserved = 0.651

[[record]]
compound = "CN(CC(=O)Nc1ccc(F)c(F)c1F)C(=O)C1CCC1"
unitannotation = "%"
valueobserved = 9.13

[[record]]
compound = "CCOc1ccc(NC(=O)C(=O)NCC2CCCN2CC)cc1 (stereo not drawn)"
unitannotation = "%"
valueobserved = -16.4

[[record]]
compound = "Cc1ccc(Cl)cc1NC(=S)N(CCCN1CCN(C)CC1)Cc1cccs1"
unitannotation = "%"
valueobserved = -61.7

[[record]]
compound = "O=S(=O)(c1ccc(Nc2ccc(-c3ccc4c(c3)OCCO4)nn2)cc1)N1CCCC1"
unitannotation = "%"
valueobserved = 5.27

[[record]]
compound = "CCN1CCCC1CNC(=O)C(=O)Nc1ccccc1 (stereo not drawn)"
unitannotation = "%"
valueobserved = -9.35

[[record]]
compound = "Cc1ccc(C2CC(=O)Nc3c2ccc2ccccc32)cc1[N+](=O)[O-] (stereo not drawn)"
unitannotation = "%"
valueobserved = 6.65

[[record]]
compound = "CON=C1CCN(c2ncc(C(F)(F)F)cc2Cl)CC1"
unitannotation = "%"
valueobserved = -5.78

[[record]]
compound = "CC12CCC(=O)N1C(C(=O)NNC(=O)c1ccc(Br)cc1)CS2 (stereo not drawn)"
unitannotation = "%"
valueobserved = -8.4

[[record]]
compound = "Cc1ccc(Cl)c(NC(=S)N(CCCN2CCOCC2)Cc2ccco2)c1"
unitannotation = "%"
valueobserved = -35.3

[[record]]
compound = "CC1CCCCC12NC(=O)N(CC(=O)NCCc1ccc(F)cc1)C2=O (stereo not drawn)"
unitannotation = "%"
valueobserved = -19.7

[[record]]
compound = "Cc1ccc(NC(=S)N(CCCN2CCOCC2)Cc2cccs2)c(C)c1"
unitannotation = "%"
valueobserved = -11.7

[[record]]
compound = "C=CCNC(=O)c1ccc(OC)cc1"
unitannotation = "%"
valueobserved = -12

[[record]]
compound = "COc1ccc(S(=O)(=O)N(C)c2ccc(C(=O)NC3CCCC3)cc2)cc1"
unitannotation = "%"
valueobserved = -83.7

[[record]]
compound = "CC(=O)c1ccccc1NS(=O)(=O)c1c(C)nn(-c2ccccc2)c1C"
unitannotation = "%"
valueobserved = 3.03

[[record]]
compound = "O=C(c1cc(-c2cccc(Cl)c2)nc2ccccc12)N1CCCC1"
unitannotation = "%"
valueobserved = -40.2

[[record]]
compound = "CCOC(=O)C1CSC(CC(=O)Nc2ccc(Cl)cc2)C(=O)N1 (stereo not drawn)"
unitannotation = "%"
valueobserved = -14.9

[[record]]
compound = "NC(=O)COC(=O)CC12CC3CC(CC(Br)(C3)C1)C2"
unitannotation = "%"
valueobserved = 24.6

[[record]]
compound = "Cc1cccc(C)c1NC(=O)CN(C)C(=O)c1ccccc1Sc1ccccc1C#N"
unitannotation = "%"
valueobserved = -4.76

[[record]]
compound = "CN(CC(=O)Nc1ccc(F)c(F)c1F)C1CCCCC1"
unitannotation = "%"
valueobserved = -52.5

[[record]]
compound = "COc1ccc(S(=O)(=O)N(C)c2ccc(C(=O)NC3CC3)cc2)cc1"
unitannotation = "%"
valueobserved = -12.6

[[record]]
compound = "COc1cccc(NC(=O)c2cnc[nH]2)c1"
unitannotation = "%"
valueobserved = 25.1

[[record]]
compound = "Br.CCS(=O)CCSC(=N)N (stereo not drawn)"
unitannotation = "%"
valueobserved = 19.2

[[record]]
compound = "Cc1ccccc1CNc1nnnn1C"
unitannotation = "%"
valueobserved = 12.4

[[record]]
compound = "COc1ccccc1N1CCN(C(=O)CCCCCn2c(=O)[nH]c3ccsc3c2=O)CC1"
unitannotation = "%"
valueobserved = -24.7

[[record]]
compound = "CCN1CCN(CCCN(Cc2ccco2)C(=S)Nc2cc(Cl)ccc2C)CC1"
unitannotation = "%"
valueobserved = -61.9

